tested on: KM12 colon; test: NCI-60 one-dose screen, 48 h (100 = growth as untreated, 0 = no growth, -100 = all killed); conditions: 10 µM unless noted
The panel holds about 83,000 compounds, 20% with a hit somewhere; the sample as a whole holds those more often.
Assign labels as follows, please: yes (1) for growth below 80%; no (0) for growth equal to or exceeding 80%.

Look over these answered cases.
compound: CC(=O)N(Cc1ccccc1)c1nc2ccc(O)c(CN(C)C)c2s1
groupLabel: no (0)
--
compound: COc1ccc(/C(C)=C(\c2ccc(Cl)cc2)c2ccc(OCCN3CCCC3)cc2)cc1
groupLabel: yes (1)
--
compound: COc1ccc(C2=NN(C(C)=O)C(c3ccc(Oc4ccnc5cc(Cl)ccc45)c(OC)c3)C2)cc1 (stereo unspecified)
groupLabel: yes (1)
--
compound: Cc1ccc(-c2csc(NC(=O)N3CCN(c4cc5c(cc4F)c(=O)c(C(=O)O)cn5C4CC4)CC3)n2)cc1
groupLabel: yes (1)
--
compound: O=C1/C(=C/c2ccc(Br)cc2)COc2ccc(O)c(O)c21
groupLabel: yes (1)

hey, is growth for CCOC(=O)/C=C/c1c(C)[nH]c(=O)[nH]c1=O lower than 80% or not?
no (0)

hey, is growth for C=CCOC(=O)C1=C(C)NC(=O)NC1c1c(Cl)n(C)c2ccccc12 (stereo unspecified) lower than 80% or not?
no (0)

hey, is growth for O=C1/C(=C/c2ccc(C(F)(F)F)cc2)COc2ccc(O)cc21 lower than 80% or not?
yes (1)

hey, is growth for O=C(Cn1nnc([N+](=O)[O-])n1)c1ccccc1 lower than 80% or not?
no (0)

hey, is growth for COc1ccc2c(c1)c(-c1cc(-c3cn(C)c4ccc(OC)cc34)on1)cn2C lower than 80% or not?
no (0)

hey, is growth for CO[C@H](C(=O)[C@@H](O)[C@@H](C)O)[C@@H]1Cc2cc3cc(O[C@H]4C[C@@H](O[C@H]5C[C@@H](O)[C@H](O)C(C)O5)[C@H](O)C(C)O4)c(C)c(O)c3c(O)c2C(=O)[C@H]1O[C@H]1C[C@@H](O[C@H]2C[C@@H](O[C@H]3C[C@@H](OC)[C@H](O)C(C)O3)[C@@H](O)C(C)O2)C(O)(O)C(C)O1 (stereo partly specified) lower than 80% or not?
yes (1)

hey, is growth for O=C(CSc1nnc2sc(Nc3cccc(Cl)c3)nn12)c1ccc(F)cc1 lower than 80% or not?
no (0)

###

test system: NCI-H23 lung; assay: NCI-60 one-dose screen, 48 h; details: 10 µM unless noted
The panel holds about 83,000 compounds, 20% with a hit somewhere; the sample as a whole holds those more often. The source made the active and inactive calls. Rule for the calls: active = growth percent below 10; inactive = the rest.
Log the outcome using a class from active, inactive

Look over these answered cases.
molecule: Nc1ncnc2c1c(-c1ccc(Oc3ccccc3)cc1)nn2CC1SSCC1O (configuration not stated)
groupLabel: inactive

molecule: CC(C)CSc1oc(-c2ccccc2)nc1S(=O)(=O)c1ccccc1
groupLabel: inactive

molecule: Cc1ncc(C(=O)Nc2ccc(CN3CCN(C)CC3)c(C(F)(F)F)c2)cc1C#Cc1cnc(N)c2cnccc12
groupLabel: active

molecule: CCOC(=O)CSc1nc2sc3c(c2c(=O)n1-c1ccc([N+](=O)[O-])cc1)CCCCC3
groupLabel: inactive

molecule: CO[C@H](C(=O)[C@@H](O)[C@@H](C)O)[C@@H]1Cc2cc3cc(O[C@H]4C[C@@H](O[C@H]5C[C@@H](O)[C@H](O)C(C)O5)[C@H](O)C(C)O4)c(C)c(O)c3c(O)c2C(=O)[C@H]1O[C@H]1C[C@@H](O[C@H]2C[C@@H](O[C@H]3C[C@@H](OC)[C@H](O)C(C)O3)[C@@H](O)C(C)O2)C(O)(O)C(C)O1 (some centres not stated)
groupLabel: active

molecule: Clc1ccc(-c2nc(-c3c[nH]c4ncccc34)cs2)cc1
groupLabel: inactive

Would you mind telling me which call this test gave COC1=CC(c2ccc[nH]2)=N/C1=C\c1[nH]c(C)c(CC(=O)OCc2ccccc2)c1C ?
active

###

System: MDA-MB-231 breast
Test: NCI-60 one-dose screen, 48 h
Settings: 10 µM unless noted
Protocol: Cells are grown in 96 well plates and exposed to the test compound for 48 hours. Compounds are tested at a single concentration, which is 10^-5 M for most compounds. The reported endpoint is percent growth (GI% or GIPRCNT), where numbers from 0 - 100% represent growth inhibition, and numbers from -100% - 0 represent cell death. For example, a value of 40 represents 60% growth inhibition. A value of 0 means no net growth occurred over the course of the experiment. […]
Compounds without any hit were thinned out: in the full panel of roughly 83,000, 20% have a hit. Activity calls are given as the source filed them. How the source made its calls: active means growth percent below 10; inactive means the rest.
Log the outcome using a class from active, inactive

compound: COc1ccc(C2=NN(C(C)=O)C(c3ccc(Oc4ccnc5cc(Cl)ccc45)c(OC)c3)C2)cc1 (centres undefined)
groupLabel: inactive
//
compound: C#CC#CC#CC#CC#CC#CC#CC#CC[C@H]1OC[C@H](COC(=O)O[C@@H](C(=O)O[C@H]2C[C@@]3(O)[C@@H](OC(=O)c4ccccc4)[C@@H]4[C@]5(OC(C)=O)CO[C@@H]5C[C@H](O)[C@@]4(C)C(=O)[C@H](OC(C)=O)C(=C2C)C3(C)C)[C@@H](NC(=O)c2ccccc2)c2ccccc2)O1
groupLabel: inactive
//
compound: COc1ccc(C2=Nc3c(N)ncnc3NC(c3cccc(Nc4ccnc5cc(C(F)(F)F)ccc45)c3)C2)cc1 (centres undefined)
groupLabel: inactive

Would you mind telling me which call this test gave CCCCCCC(CCCC)COC(=O)c1ccc(Cl)cc1 (centres undefined) ?
inactive

Would you mind telling me which call this test gave N#C/C(=C\c1ccc(-c2ccc(Cl)cc2)o1)c1ccc(Cl)cc1 ?
inactive

Would you mind telling me which call this test gave Cc1ccccc1OCC(O)COc1ccccc1C ?
inactive

Would you mind telling me which call this test gave CCn1cc(C(=O)N/N=C/c2ccc(Br)cc2)c(=O)c2cc(F)c(N3CCNC(C)C3)c(F)c21 (centres undefined) ?
inactive

Would you mind telling me which call this test gave C=CCCC(=O)N1C=CC(=O)[C@H](O)[C@@H]1/C=C/c1ccccc1 ?
inactive

Would you mind telling me which call this test gave O=C1/C(=C/c2ccccc2)CN(C(=O)c2cccnc2)C/C1=C\c1ccccc1 ?
active

###

system: UO-31 renal; experiment: NCI-60 one-dose screen, 48 h (100 = growth as untreated, 0 = no growth, -100 = all killed); conditions: 10 µM unless noted
The panel holds about 83,000 compounds, 20% with a hit somewhere; the sample as a whole holds those more often.
readoutLabel: growth (%)
Reply numerically in %, unit not repeated.

compound: COc1ccc2[nH]cc(-c3nc(-c4cn(C)c5ccncc45)cs3)c2c1
u: %
growth: 77.6

compound: COc1cc(C(=O)C(=O)c2cc(OC)c(O)c(OC)c2)cc(OC)c1O
u: %
growth: 98.6

compound: CCCCN1C(=O)/C(=c2\sc3n(c2=O)NC2C(N=3)N(CC)C(=O)N2CC)c2ccccc21 (stereo unspecified)
u: %
growth: 40.1

Briefly, growth measured for COc1cccc(/C=C/C(=O)c2cc3c(N)c(C(=O)Nc4cccc(Cl)c4C)sc3nc2C)c1 : -43.4

Briefly, growth measured for O=C(CCl)Nc1ccc2c(Nc3cc(O)ccc3Cl)ncnc2c1 : -92.9

Briefly, growth measured for CCOC(=O)C1CCN(c2ccc(N3C[C@@H](CNCc4ccc(C(=N)N)cc4)OC3=O)cc2)CC1 : 77.8

###

growth values for the molecules below.
system: SW-620 colon; assay: NCI-60 one-dose screen, 48 h (100 = growth as untreated, 0 = no growth, -100 = all killed); settings: 10 µM unless noted
This is part of a sample that, as a whole, favours compounds with a hit. Of some 83,000 tested, about 20% had one in any assay. Activity calls are given as the source filed them. How the source made its calls: active means growth percent below 10; inactive means the rest.

Below, 7 molecules whose answers are already recorded.
molecule: O=c1oc2c(cnc3ccccc32)cc1-c1cccs1
measuredOn: SW-620 colon
growth: 103% (inactive)
--
molecule: COc1ccc(/C=C/C(=O)c2ccc(Nc3nc(Nc4ccc(F)cc4)nc(Nc4ccc(Cl)cc4)n3)cc2)cc1
measuredOn: SW-620 colon
growth: 104% (inactive)
--
molecule: COc1cccc(Nc2ccnc3[nH]c4ccc([N+](=O)[O-])cc4c23)c1
measuredOn: SW-620 colon
growth: 56.5% (inactive)
--
molecule: CCCC(O)Cn1ncc(C(=O)OCC)c1NC(=O)NCc1cccc(F)c1 (stereo not drawn)
measuredOn: SW-620 colon
growth: 107% (inactive)
--
molecule: Cc1c2cnccc2c(C)c2c1c1cc(C3OCCCO3)ccc1n2C
measuredOn: SW-620 colon
growth: 4.71% (active)
--
molecule: CCCCCCC(=O)Nc1ncc(Cc2ccc(C)cc2)s1
measuredOn: SW-620 colon
growth: 22.4% (inactive)
--
molecule: C=C1C(=O)O[C@H]2[C@H]1CC/C(COC(=O)NCc1ccc(Cn3c(=O)sn(-c4ccc(OC)cc4)c3=O)cc1)=C\CC[C@@]1(C)O[C@@H]21
measuredOn: SW-620 colon
growth: -59.8% (active)

Let us move to another entry and its growth.
Record C#CC#CC#CC#CC#CC#CC#CC#CCC1OCC(COC(=O)O[C@@H](C(=O)O[C@H]2C[C@@]3(O)[C@@H](OC(=O)c4ccccc4)[C@@H]4[C@]5(OC(C)=O)CO[C@@H]5C[C@H](O)[C@@]4(C)C(=O)[C@H](OC(C)=O)C(=C2C)C3(C)C)[C@@H](NC(=O)c2ccccc2)c2ccccc2)O1 (stereo partly drawn) / SW-620 colon, growth recorded as 24.1% (inactive)
